Each recorded value in this set is attributed to ChEMBL document CHEMBL5543077.

Here the recorded pIC50 is given for each entry.
system under test: Prostaglandin G/H synthase 1 (Ovis aries, UniProt P05979)
pIC50: −log10 of the molar value.

Here are 4 molecules together with their reported answers.
O=C(O)Cc1onc(-c2ccc(OCc3ccccc3)cc2)c1-c1ccc(OCc2ccccc2)cc1    < 4.30
CCCCOc1ccc(-c2c(-c3ccc(OC)cc3)noc2CC(=O)O)cc1    6.49
CCCOc1ccc(-c2noc(CC(=O)O)c2-c2ccc(OCCC)cc2)cc1    < 4.30
COc1ccc(-c2noc(C)c2-c2ccc(OC(C)(C)C)cc2)cc1    < 4.30

Reported pIC50 of `COc1ccc(-c2noc(C)c2-c2ccc(OCc3ccccc3)cc2)cc1` : < 4.30

// field: pIC50; key: `CCCOc1ccc(-c2c(-c3ccc(OC)cc3)noc2CC(=O)O)cc1` ; value = 7.10

# pIC50 of `Cc1onc(-c2ccc(OC(C)(C)C)cc2)c1-c1ccc(OC(C)(C)C)cc1` = < 4.30

Data point: `CCOc1ccc(-c2c(-c3ccc(OC)cc3)noc2CC(=O)O)cc1` ; pIC50 = 6.92

Data point: `COc1ccc(-c2noc(CC(=O)O)c2-c2ccc(OC(C)(C)C)cc2)cc1` ; pIC50 = < 4.30

The reported value for `Cc1onc(-c2ccc(Oc3ccccc3)cc2)c1-c1ccc(Oc2ccccc2)cc1` in terms of pIC50 is < 4.30

----------
system under test: Prostaglandin G/H synthase 2 (Homo sapiens, UniProt P35354)
pIC50: −log10 of the molar value.
Reported pIC50 values are given for each entry in this list.

C=CCc1cccc(-c2nc(-c3ccccc3Cl)c(-c3ccccc3Cl)[nH]2)c1OC(=O)COC    < 4.00

Value sought: pIC50, system Prostaglandin G/H synthase 2 (Homo sapiens, UniProt P35354), item `C=CCc1cccc(-c2nc(-c3ccccc3Cl)c(-c3ccccc3Cl)[nH]2)c1OC(C)=O` . Result: < 4.00

----------
system under test: Prostaglandin G/H synthase 1 (Ovis aries)
pIC50: −log10 of the molar value.
observable: pIC50

CC(C)(C)Oc1ccc(-c2noc(CC(=O)O)c2-c2ccc(OC(C)(C)C)cc2)cc1    < 4.30
CCCOc1ccc(-c2noc(C)c2-c2ccc(OCCC)cc2)cc1    < 4.30

Consider now this further compound.
The compound `CCCOc1ccc(-c2c(-c3ccc(OC)cc3)noc2C)cc1` , tested on Prostaglandin G/H synthase 1 (Ovis aries), showed pIC50 of 5.89

----------
system under test: Prostaglandin G/H synthase 1 (Ovis aries, UniProt P05979)
Sequence (P05979 whole entry): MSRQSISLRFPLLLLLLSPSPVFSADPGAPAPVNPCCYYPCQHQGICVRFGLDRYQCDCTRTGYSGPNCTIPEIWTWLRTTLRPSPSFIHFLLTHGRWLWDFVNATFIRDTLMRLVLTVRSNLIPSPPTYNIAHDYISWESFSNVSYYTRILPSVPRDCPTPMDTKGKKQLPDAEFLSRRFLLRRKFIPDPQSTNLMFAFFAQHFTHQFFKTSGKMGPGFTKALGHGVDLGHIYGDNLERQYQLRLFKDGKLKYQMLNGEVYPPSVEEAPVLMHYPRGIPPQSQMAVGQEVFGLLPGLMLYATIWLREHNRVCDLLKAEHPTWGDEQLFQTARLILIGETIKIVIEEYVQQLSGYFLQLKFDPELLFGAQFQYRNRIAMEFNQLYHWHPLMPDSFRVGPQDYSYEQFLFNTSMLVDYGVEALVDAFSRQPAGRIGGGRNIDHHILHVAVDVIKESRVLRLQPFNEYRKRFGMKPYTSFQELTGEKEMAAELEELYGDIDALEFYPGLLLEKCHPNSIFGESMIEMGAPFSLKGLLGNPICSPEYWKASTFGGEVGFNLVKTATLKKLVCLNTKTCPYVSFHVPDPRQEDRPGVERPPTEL
observable: pIC50
The scale used: pIC50 is minus the common logarithm of the concentration in molar units.

CCOc1ccc(-c2noc(CC(=O)O)c2-c2ccc(OCC)cc2)cc1    6.92

Okay, now this compound:
Recorded pIC50 (compound `CCOc1ccc(-c2noc(C)c2-c2ccc(OCC)cc2)cc1` ): 6.64

----------
pIC50 values for the compounds below.
system under test: Prostaglandin G/H synthase 2 (Homo sapiens)
Sequence (P35354 whole entry): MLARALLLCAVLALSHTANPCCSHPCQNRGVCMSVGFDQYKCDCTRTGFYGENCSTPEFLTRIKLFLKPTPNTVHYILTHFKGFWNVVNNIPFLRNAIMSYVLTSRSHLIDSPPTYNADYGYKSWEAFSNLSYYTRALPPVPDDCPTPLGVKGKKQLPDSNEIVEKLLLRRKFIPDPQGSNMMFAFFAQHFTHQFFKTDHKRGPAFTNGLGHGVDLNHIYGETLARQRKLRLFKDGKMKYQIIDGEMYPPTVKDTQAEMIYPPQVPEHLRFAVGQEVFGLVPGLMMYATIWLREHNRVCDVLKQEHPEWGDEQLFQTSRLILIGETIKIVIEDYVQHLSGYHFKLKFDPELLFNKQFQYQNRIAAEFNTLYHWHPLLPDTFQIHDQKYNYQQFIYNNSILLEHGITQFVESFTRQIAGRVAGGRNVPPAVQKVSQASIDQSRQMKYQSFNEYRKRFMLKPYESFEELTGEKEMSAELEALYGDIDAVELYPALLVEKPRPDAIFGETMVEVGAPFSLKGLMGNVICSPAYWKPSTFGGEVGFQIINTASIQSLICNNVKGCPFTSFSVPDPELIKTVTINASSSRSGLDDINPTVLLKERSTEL
pIC50: −log10 of the molar value.

A selection of reference data follows.
CCOc1ccc(-c2c(-c3ccc(OC)cc3)noc2CC(=O)O)cc1    < 4.30
CCCOc1ccc(-c2c(-c3ccc(OC)cc3)noc2C)cc1    < 4.30
CC(C)(C)Oc1ccc(-c2noc(CC(=O)O)c2-c2ccc(OC(C)(C)C)cc2)cc1    < 4.30
COc1ccc(-c2noc(CC(=O)O)c2-c2ccc(Oc3ccccc3)cc2)cc1    < 4.30
CCCCOc1ccc(-c2c(-c3ccc(OC)cc3)noc2CC(=O)O)cc1    6.35

The recorded pIC50 for `CCOc1ccc(-c2noc(CC(=O)O)c2-c2ccc(OCC)cc2)cc1` is < 4.30

Input `CCOc1ccc(-c2noc(C)c2-c2ccc(OCC)cc2)cc1` . Output pIC50: < 4.30

pIC50 measured on `CCCOc1ccc(-c2c(-c3ccc(OC)cc3)noc2CC(=O)O)cc1` = 5.16

For reference, reported pIC50 for `CCCOc1ccc(-c2noc(C)c2-c2ccc(OCCC)cc2)cc1` stands at < 4.30

Note to self: pIC50 recorded for `COc1ccc(-c2noc(C)c2-c2ccc(OC(C)(C)C)cc2)cc1` was < 4.30

Entry `CCCOc1ccc(-c2noc(CC(=O)O)c2-c2ccc(OCCC)cc2)cc1` — recorded pIC50 = 5.44

----------
# maps each entry to its pIC50
system under test: Prostaglandin G/H synthase 1 (Ovis aries)
A value of pIC50 is the negative decimal logarithm of a concentration given in moles per litre.

The reported Prostaglandin G/H synthase 1 (Ovis aries) pIC50 of `CCCCOc1ccc(-c2noc(CC(=O)O)c2-c2ccc(OCCCC)cc2)cc1` is 7.28

Tested on Prostaglandin G/H synthase 1 (Ovis aries), the item `CCOc1ccc(-c2c(-c3ccc(OC)cc3)noc2C)cc1` showed pIC50 equal to 7.34

Field pIC50 (Prostaglandin G/H synthase 1 (Ovis aries)), entry `COc1ccc(-c2noc(CC(=O)O)c2-c2ccc(OCc3ccccc3)cc2)cc1` : 6.35

----------
The entries below come with measured IC50 values attached.
system under test: Prostaglandin G/H synthase 2 (Homo sapiens, UniProt P35354)
Sequence (P35354 whole entry): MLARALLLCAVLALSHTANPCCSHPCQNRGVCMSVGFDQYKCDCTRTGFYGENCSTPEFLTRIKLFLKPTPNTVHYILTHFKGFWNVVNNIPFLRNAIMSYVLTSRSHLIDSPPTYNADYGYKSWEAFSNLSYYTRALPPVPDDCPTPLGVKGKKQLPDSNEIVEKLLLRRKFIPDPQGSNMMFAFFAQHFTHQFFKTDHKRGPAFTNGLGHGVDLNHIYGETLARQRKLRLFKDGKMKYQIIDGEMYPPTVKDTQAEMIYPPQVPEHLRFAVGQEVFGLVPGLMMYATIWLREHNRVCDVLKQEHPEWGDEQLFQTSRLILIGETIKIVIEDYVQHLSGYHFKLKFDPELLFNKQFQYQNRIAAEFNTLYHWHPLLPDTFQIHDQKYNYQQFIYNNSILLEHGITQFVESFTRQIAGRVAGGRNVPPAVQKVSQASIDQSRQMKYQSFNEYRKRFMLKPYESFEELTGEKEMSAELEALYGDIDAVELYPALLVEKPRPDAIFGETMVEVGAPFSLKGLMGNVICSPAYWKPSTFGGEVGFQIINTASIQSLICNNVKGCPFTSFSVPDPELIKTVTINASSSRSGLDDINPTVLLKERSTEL

Reference set (2 entries):
CCc1onc(-c2ccccc2)c1-c1ccccc1    > 1.49 µM
Cc1onc(-c2ccc(Cl)o2)c1-c1ccccc1    > 100 µM

--- query ---
Hey, Prostaglandin G/H synthase 2 (Homo sapiens, UniProt P35354) data for `CCOc1ccc(N)cc1C(=O)Nc1cccc(C(F)(F)F)c1` : IC50 came out at > 100 µM
